target.or.system: Human GPR40 (Homo sapiens, UniProt O14842)
Sequence (O14842 whole entry): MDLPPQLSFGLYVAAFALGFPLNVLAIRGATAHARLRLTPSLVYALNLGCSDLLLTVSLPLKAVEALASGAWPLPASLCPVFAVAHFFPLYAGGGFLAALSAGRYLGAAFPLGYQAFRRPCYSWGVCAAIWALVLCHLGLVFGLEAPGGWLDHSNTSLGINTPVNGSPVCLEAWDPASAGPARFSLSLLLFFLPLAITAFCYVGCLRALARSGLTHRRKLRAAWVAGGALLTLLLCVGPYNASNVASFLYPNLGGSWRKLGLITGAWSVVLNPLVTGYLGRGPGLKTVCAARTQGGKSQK
experiment.description: Inositol phosphate turnover (IP1) assay in HEK cells stably expressing human GPR40
Type: cell-based
Set-up: expressed in transfected cells
condition.info: HEK cells stably expressing human GPR40, 3H-inositol labeling, 60 min compound incubation
pEC50: −log10 of the molar value.
Record condition met whenever pEC50 is at 7 or higher; record condition not met when lower.

INSERT INTO measurements (compound, target_or_system, assigned_category) VALUES
  ('Cc1nc(OC2CCN(S(C)(=O)=O)CC2)ccc1-c1ccc(F)c(COc2ccc3c(c2)C[C@H]2[C@H](C(=O)O)[C@@H]32)c1', 'Human GPR40 (Homo sapiens, UniProt O14842)', 'condition met'),
  ('Cc1nc(OCCCS(C)(=O)=O)ccc1-c1ccc(F)c(COc2ccc3c(c2)C[C@H]2[C@H](C(=O)O)[C@@H]32)c1F', 'Human GPR40 (Homo sapiens, UniProt O14842)', 'condition met'),
  ('Cc1nc(OCCCC2(O)CC2)ccc1-c1ccc(F)c(COc2ccc3c(c2)C[C@H]2[C@H](C(=O)O)[C@@H]32)c1', 'Human GPR40 (Homo sapiens, UniProt O14842)', 'condition met'),
  ('Cc1nc(OCC2(O)CCCCC2O)ccc1-c1ccc(F)c(COc2ccc3c(c2)C[C@H]2[C@H](C(=O)O)[C@@H]32)c1 (stereo partly shown)', 'Human GPR40 (Homo sapiens, UniProt O14842)', 'condition met'),
  ('Cc1nc(N2CCC(C(F)(F)F)CC2)ccc1-c1ccc(F)c(COc2ccc3c(c2)C[C@H]2[C@H](C(=O)O)[C@@H]32)c1', 'Human GPR40 (Homo sapiens, UniProt O14842)', 'condition met'),
  ('Cc1cc(OCCCS(C)(=O)=O)nc(C)c1-c1cccc(COc2ccc3c(c2)C[C@H]2[C@H](C(=O)O)[C@@H]32)c1', 'Human GPR40 (Homo sapiens, UniProt O14842)', 'condition met'),
  ('O=C(O)[C@H]1[C@@H]2Cc3cc(OCc4cc(-c5cnc(NCC6CCOCC6)cc5C(F)(F)F)ccc4F)ccc3[C@@H]21', 'Human GPR40 (Homo sapiens, UniProt O14842)', 'condition met'),
  ('Cc1nc(N2CCC(CNS(C)(=O)=O)C2)ccc1-c1ccc(F)c(COc2ccc3c(c2)C[C@H]2[C@H](C(=O)O)[C@@H]32)c1 (stereo partly shown)', 'Human GPR40 (Homo sapiens, UniProt O14842)', 'condition met'),
  ('Cc1nc(OCCCCn2nccn2)ccc1-c1ccc(F)c(COc2ccc3c(c2)CC2C(C(=O)O)C32)c1 (stereo not shown)', 'Human GPR40 (Homo sapiens, UniProt O14842)', 'condition met'),
  ('CS(=O)(=O)CCCOc1ncc(-c2ccc(F)c(COc3ccc4c(c3)C[C@H]3[C@H](C(=O)O)[C@@H]43)c2)cc1C(F)(F)F', 'Human GPR40 (Homo sapiens, UniProt O14842)', 'condition not met'),
  ('Cc1nc(N2CCC(c3ccccc3)CC2)nc(C)c1-c1ccc(F)c(COc2ccc3c(c2)C[C@H]2[C@H](C(=O)O)[C@@H]32)c1F', 'Human GPR40 (Homo sapiens, UniProt O14842)', 'condition not met');

---

target.or.system: Human GPR40 (Homo sapiens, UniProt O14842)
experiment.description: Inositol phosphate turnover (IP1) assay in HEK cells stably expressing human GPR40
Type: cell-based
Set-up: expressed in transfected cells
condition.info: HEK cells stably expressing human GPR40, 3H-inositol labeling, 60 min compound incubation
Structures can show the parent of a compound that is named as a salt.
parameter: EC50 (nM)

INSERT INTO assay_data (compound, target_or_system, obs_value) VALUES
  ('Cc1cc(-c2ccc(F)c(COc3ccc4c(c3)C[C@H]3[C@H](C(=O)O)[C@@H]43)c2)c2c(cnn2C)n1 [Example 53, formate]', 'Human GPR40 (Homo sapiens, UniProt O14842)', 39),
  ('Cc1nc(OCCCS(C)(=O)=O)ccc1-c1ccc(F)c(COc2ccc3c(c2)C[C@H]2[C@H](C(=O)O)[C@@H]32)c1', 'Human GPR40 (Homo sapiens, UniProt O14842)', 7.3),
  ('Cc1nc(OCCCN2CCCC2=O)ccc1-c1ccc(F)c(COc2ccc3c(c2)C[C@H]2[C@H](C(=O)O)[C@@H]32)c1', 'Human GPR40 (Homo sapiens, UniProt O14842)', 20.5),
  ('Cc1nc(O[C@@H]2CO[C@H]3[C@@H]2OC[C@@H]3O)ccc1-c1ccc(F)c(COc2ccc3c(c2)C[C@H]2[C@H](C(=O)O)[C@@H]32)c1', 'Human GPR40 (Homo sapiens, UniProt O14842)', 14),
  ('Cc1nc(N2CCC(CS(C)(=O)=O)CC2)ccc1-c1ccc(F)c(COc2ccc3c(c2)C[C@H]2[C@H](C(=O)O)[C@@H]32)c1', 'Human GPR40 (Homo sapiens, UniProt O14842)', 27),
  ('Cc1nc(NCCCS(C)(=O)=O)ccc1-c1ccc(F)c(COc2ccc3c(c2)C[C@H]2[C@H](C(=O)O)[C@@H]32)c1', 'Human GPR40 (Homo sapiens, UniProt O14842)', 43.5),
  ('O=C(O)[C@H]1[C@@H]2Cc3cc(OCc4cc(-c5cnc6[nH]ccc6c5)ccc4F)ccc3[C@@H]21', 'Human GPR40 (Homo sapiens, UniProt O14842)', 304);

---

target.or.system: Human GPR40 (Homo sapiens)
experiment.description: Inositol phosphate turnover (IP1) assay in HEK cells stably expressing human GPR40
Type: cell-based
Parameters: expressed in transfected cells
condition.info: HEK cells stably expressing human GPR40, 3H-inositol labeling, 60 min compound incubation
Threshold 0.2 µM. EC50 below it: rule met. EC50 at it or above: rule not met.

INSERT INTO measurements (compound, assigned_category) VALUES
  ('Cc1nc(OCCCOCc2ccccc2)ccc1-c1ccc(F)c(COc2ccc3c(c2)C[C@H]2[C@H](C(=O)O)[C@@H]32)c1', 'rule not met'),
  ('Cc1nc(N2CCC3(C=Cc4ccccc43)CC2)ccc1-c1ccc(F)c(COc2ccc3c(c2)C[C@H]2[C@H](C(=O)O)[C@@H]32)c1', 'rule not met'),
  ('Cc1nc(OC2CCS(=O)(=O)CC2)ccc1-c1ccc(F)c(COc2ccc3c(c2)C[C@H]2[C@H](C(=O)O)[C@@H]32)c1', 'rule met'),
  ('Cc1nc(N2CCC(O)CC2)ccc1-c1ccc(F)c(COc2ccc3c(c2)C[C@H]2[C@H](C(=O)O)[C@@H]32)c1', 'rule met'),
  ('Cc1nc(N2CCC(C#N)(c3ccccc3)CC2)nc(C)c1-c1ccc(F)c(COc2ccc3c(c2)C[C@H]2[C@H](C(=O)O)[C@@H]32)c1', 'rule not met'),
  ('Cc1nc(OCC2CCC[C@H](O)[C@@H]2O)ccc1-c1ccc(F)c(COc2ccc3c(c2)C[C@H]2[C@H](C(=O)O)[C@@H]32)c1 (stereo partly drawn)', 'rule met');

---

target.or.system: Human GPR40 (Homo sapiens)
experiment.description: FLIPR assay: agonist-induced calcium mobilization in GPR40/CHO NFAT BLA cells
Type: cell-based
Parameters: expressed in transfected cells; host or cells: CHO cells stably expressing NFAT BLA (beta-lactamase)
pEC50: −log10 of the molar value.
Record 1 whenever pEC50 is at 7 or higher; record 0 when lower.

INSERT INTO assay_data (compound, assigned_category) VALUES
  ('Cc1cc(NCCCS(C)(=O)=O)ncc1-c1cccc(COc2ccc3c(c2)C[C@H]2[C@H](C(=O)O)[C@@H]32)c1C [Example 16]', 0),
  ('Cc1nc(N2CCC(C#N)(c3ccccc3)CC2)nc(C)c1-c1ccc(F)c(COc2ccc3c(c2)C[C@H]2[C@H](C(=O)O)[C@@H]32)c1 [Example 44]', 1),
  ('Cc1cc(NCCCS(C)(=O)=O)ncc1-c1cccc(COc2ccc3c(c2)C[C@H]2[C@H](C(=O)O)[C@@H]32)c1 [Example 15]', 0),
  ('Cc1nc(OCCCC2(O)CC2)ccc1-c1ccc(F)c(COc2ccc3c(c2)C[C@H]2[C@H](C(=O)O)[C@@H]32)c1 [Example 37]', 1),
  ('Cc1nc(N2CCC(C(F)(F)F)CC2)ccc1-c1ccc(F)c(COc2ccc3c(c2)C[C@H]2[C@H](C(=O)O)[C@@H]32)c1 [Example 42]', 1),
  ('Cc1nc(N2CCC(CS(C)(=O)=O)CC2)ccc1-c1ccc(F)c(COc2ccc3c(c2)C[C@H]2[C@H](C(=O)O)[C@@H]32)c1 [Example 50]', 1),
  ('Cc1cc(OCCCS(C)(=O)=O)ncc1-c1ccc(F)c(COc2ccc3c(c2)C[C@H]2[C@H](C(=O)O)[C@@H]32)c1F [Example 22]', 1),
  ('Cc1cc(OCCCS(C)(=O)=O)nc(C)c1-c1ccc(F)c(COc2ccc3c(c2)C[C@H]2[C@H](C(=O)O)[C@@H]32)c1 [Example 6]', 1),
  ('Cc1nc(N2CC(S(C)(=O)=O)C2)ccc1-c1ccc(F)c(COc2ccc3c(c2)C[C@H]2[C@H](C(=O)O)[C@@H]32)c1 [Example 51]', 1),
  ('Cc1nc(N2CCC(CNS(C)(=O)=O)C2)ccc1-c1ccc(F)c(COc2ccc3c(c2)C[C@H]2[C@H](C(=O)O)[C@@H]32)c1 (stereo partly shown) [Example 47]', 1),
  ('Cc1nc(NCCCS(C)(=O)=O)ccc1-c1ccc(F)c(COc2ccc3c(c2)C[C@H]2[C@H](C(=O)O)[C@@H]32)c1 [Example 11]', 1),
  ('Cc1cc(OCCC2(O)COC2)ncc1-c1ccc(F)c(COc2ccc3c(c2)C[C@H]2[C@H](C(=O)O)[C@@H]32)c1 [Example 30]', 1),
  ('Cc1nc(OCCCN2CCCC2=O)ccc1-c1ccc(F)c(COc2ccc3c(c2)C[C@H]2[C@H](C(=O)O)[C@@H]32)c1 [Example 36]', 1),
  ('Cc1nc(O[C@@H]2CO[C@H]3[C@@H]2OC[C@@H]3O)ccc1-c1ccc(F)c(COc2ccc3c(c2)C[C@H]2[C@H](C(=O)O)[C@@H]32)c1 [Example 31]', 1),
  ('Cc1nc(N2CCC(S(C)(=O)=O)CC2)ccc1-c1cccc(COc2ccc3c(c2)C[C@H]2[C@H](C(=O)O)[C@@H]32)c1 [Example 3]', 1),
  ('CS(=O)(=O)CCCOc1ncc(-c2ccc(F)c(COc3ccc4c(c3)C[C@H]3[C@H](C(=O)O)[C@@H]43)c2)cc1C(F)(F)F [Example 54]', 1),
  ('Cc1nc(OCCCS(C)(=O)=O)ccc1-c1ccc(F)c(COc2ccc3c(c2)C[C@H]2[C@H](C(=O)O)[C@@H]32)c1F [Example 20]', 0),
  ('Cc1c(-c2ccc(F)c(COc3ccc4c(c3)C[C@H]3[C@H](C(=O)O)[C@@H]43)c2)ccc2nc(-c3ccncc3)sc12 [Example 52]', 1),
  ('Cc1cc(OCCCS(C)(=O)=O)nc(C)c1-c1ccc(F)c(COc2ccc3c(c2)C[C@H]2[C@H](C(=O)O)[C@@H]32)c1F [Example 21]', 1),
  ('Cc1nc(N2[C@@H]3CC[C@H]2CC(O)C3)ccc1-c1ccc(F)c(COc2ccc3c(c2)C[C@H]2[C@H](C(=O)O)[C@@H]32)c1 (stereo partly shown) [Example 39]', 1);
